// data source = paper PMC5503158

system-under-test: Bax (Homo sapiens, UniProt Q07812)
Sequence (Q07812 whole entry): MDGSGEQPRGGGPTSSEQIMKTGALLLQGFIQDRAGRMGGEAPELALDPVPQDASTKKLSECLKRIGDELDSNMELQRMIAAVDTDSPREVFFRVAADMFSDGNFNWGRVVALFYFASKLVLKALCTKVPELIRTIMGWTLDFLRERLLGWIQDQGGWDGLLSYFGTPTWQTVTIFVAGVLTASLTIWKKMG
experimental-endpoint: Ki

NCCOc1ccccc1C=C1c2ccccc2-c2ccc([N+](=O)[O-])cc21 : 34.1 nM
